Listing: log10 of EC50 of selected compounds
# measured-on: delF508-CFTR (Homo sapiens, UniProt P13569, DEL508-508)
# Construct: functional activity of the CFTR channel (Chloride ion transport) in patient derived primary human bronchial epithelial cells
# Sequence (P13569 with tags, fused parts or gaps DEL508-508): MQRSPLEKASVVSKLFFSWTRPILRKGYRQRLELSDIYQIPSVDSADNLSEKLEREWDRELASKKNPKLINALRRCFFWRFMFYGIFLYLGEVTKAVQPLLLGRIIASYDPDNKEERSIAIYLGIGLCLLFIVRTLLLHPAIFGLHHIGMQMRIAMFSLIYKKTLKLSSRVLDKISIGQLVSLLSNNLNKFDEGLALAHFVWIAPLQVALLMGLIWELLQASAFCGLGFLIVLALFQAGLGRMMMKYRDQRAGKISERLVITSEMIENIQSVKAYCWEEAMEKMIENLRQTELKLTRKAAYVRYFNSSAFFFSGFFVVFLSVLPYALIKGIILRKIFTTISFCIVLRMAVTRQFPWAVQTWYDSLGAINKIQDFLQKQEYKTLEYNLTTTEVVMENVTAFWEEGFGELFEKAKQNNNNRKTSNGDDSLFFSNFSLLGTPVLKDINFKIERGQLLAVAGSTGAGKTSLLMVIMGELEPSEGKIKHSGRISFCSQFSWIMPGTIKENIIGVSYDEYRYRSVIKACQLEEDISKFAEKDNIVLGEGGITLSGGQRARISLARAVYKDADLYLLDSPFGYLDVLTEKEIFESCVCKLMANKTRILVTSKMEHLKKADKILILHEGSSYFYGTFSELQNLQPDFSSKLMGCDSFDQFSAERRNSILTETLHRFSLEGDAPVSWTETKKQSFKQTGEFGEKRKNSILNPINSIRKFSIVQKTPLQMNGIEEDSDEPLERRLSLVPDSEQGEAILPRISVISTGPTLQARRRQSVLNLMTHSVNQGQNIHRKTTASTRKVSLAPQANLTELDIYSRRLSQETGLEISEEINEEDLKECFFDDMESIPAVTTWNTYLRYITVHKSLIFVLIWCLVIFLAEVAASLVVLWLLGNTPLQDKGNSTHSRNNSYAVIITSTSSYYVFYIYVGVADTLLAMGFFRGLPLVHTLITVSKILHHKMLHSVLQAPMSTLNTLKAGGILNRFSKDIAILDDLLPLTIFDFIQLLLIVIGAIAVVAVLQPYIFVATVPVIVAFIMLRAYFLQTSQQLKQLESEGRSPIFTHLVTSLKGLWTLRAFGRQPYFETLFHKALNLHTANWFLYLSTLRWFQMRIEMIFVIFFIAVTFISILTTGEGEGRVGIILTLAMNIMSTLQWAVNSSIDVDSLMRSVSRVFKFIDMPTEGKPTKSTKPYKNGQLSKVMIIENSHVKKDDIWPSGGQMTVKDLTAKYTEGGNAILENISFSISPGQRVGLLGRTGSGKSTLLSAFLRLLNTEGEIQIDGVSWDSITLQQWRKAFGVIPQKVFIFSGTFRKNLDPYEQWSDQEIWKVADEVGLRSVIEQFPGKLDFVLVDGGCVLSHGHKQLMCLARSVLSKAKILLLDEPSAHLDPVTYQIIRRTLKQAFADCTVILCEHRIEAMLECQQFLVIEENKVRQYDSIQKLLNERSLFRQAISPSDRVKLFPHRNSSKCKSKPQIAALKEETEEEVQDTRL
# assay-details: Measurement of delF508-CFTR functional activity in primary human bronchial epithelial cells (HBECs) using Multi-Transepithelial Clamp Circuit (MTECC-24) assay
# condition-details: primary CF HBECs; test compound added 24h before assay, in the presence of potentiator; mean of at least two replicates; read-out: MTECC24 CFHBEC- EC50
Counter-ions that a name gives are not always drawn.
The common logarithm of EC50 in nM is what is listed.

Here's what some known entries look like.
Cc1cccc(C)c1-c1nc(NS(=O)(=O)c2cccc(N3CCN(C)CC3=O)n2)ccc1Cl [Example 197] :: 1.83
Cc1c(F)cccc1-c1nc(NS(=O)(=O)c2cccc(N3CCC[C@@H](C(=O)O)C3)n2)ccc1C(F)(F)F [Example 358] :: 0.60
Cc1ccccc1-c1nc(NS(=O)(=O)c2cccc(N3CCN[C@@H](CO)C3)n2)ccc1C(F)(F)F [Example 165, hydrochloride] :: 2.53
O=S(=O)(Nc1ccc(C(F)(F)F)c(-c2ccccc2Cl)n1)c1cccc(N2CC(O)C2)n1 [Example 222] :: 1.03
Cc1ccc(F)cc1-c1nc(NS(=O)(=O)c2cccc(N3CC4CCC3CN4)n2)ccc1C(F)(F)F (centres unmarked) [Example 201, Hydrochloride] :: 2.13
Cc1ccc(F)cc1-c1nc(NS(=O)(=O)c2ccnc(N3CC(O)C3)c2)ccc1Cl [Example 322] :: 2.35
Cc1ccccc1-c1nc(NS(=O)(=O)c2cccc(N3CCN(C(=O)OC(C)(C)C)[C@@H](CO)C3)n2)ccc1C(F)(F)F [Example 164] :: 1.69
Cc1ccc(F)cc1-c1nc(NS(=O)(=O)c2cccc(N3CCC(C)(C(=O)O)CC3)n2)ccc1C(F)(F)F [Example 262] :: 1.15

Consider COc1ccc(F)cc1-c1nc(NS(=O)(=O)c2cccc(N)n2)ccc1Cl [Example 62] . Its measured log10 of EC50 is 1.71

Consider Cc1ccc(F)cc1-c1nc(NS(=O)(=O)c2cccc(N[C@@H]3COCC[C@H]3O)n2)ccc1Cl [Example 278] . Its measured log10 of EC50 is 0.73

Consider COC(=O)C1(N)CCN(c2cccc(S(=O)(=O)Nc3ccc(Cl)c(-c4c(C)cccc4C)n3)n2)CC1 [Example 270] . Its measured log10 of EC50 is 1.98
